Assay: Acute toxicity test
Conditions: female, BALB/c, mouse, in vivo, ip
QUANTITY_MEASURED: LD50 at 24 h

The measured LD50 at 24 h associated with Nc1c2ncn([C@@H]3O[C@H](CO)[C@@H](O)[C@H]3O)c2nc[n+]1[O-] [adenosine N1-oxide] reads ≥ 1000 mg/kg

---

Assay: Acute toxicity test
Conditions: female, BALB/c, mouse, in vivo, ip, 1000 mg/kg; intraperitoneal, 2 g in 100 mL D-PBS, one milliliter/head, mice of 20 g, observation for 24 hours; read-out: LD50
Procedure: Two grams of any one of the adenosine N1-oxide obtained in Experiment 1, the 3′-glucosyladesonine N1-oxide and 5′-glucosyladenosine N1-oxide obtained in Experiment 2, and the 5′-adenosine diphosphate N1-oxide and 5′-adenosine triphosphate N1-oxide obtained in Experiment 3 was dissolved in 100 mL of D-PBS (Dulbecco's Phosphate-Buffered Salines). […]
QUANTITY_MEASURED: LD50 at 24 h

structure_as_smiles=Nc1c2ncn([C@@H]3O[C@H](CO[C@H]4O[C@H](CO)[C@@H](O)[C@H](O)[C@H]4O)[C@@H](O)[C@H]3O)c2nc[n+]1[O-] measurement="≥ 1000 mg/kg"

Now take the following compound into account.
The measured LD50 at 24 h associated with Nc1c2ncn([C@@H]3O[C@H](CO)[C@@H](O[C@H]4O[C@H](CO)[C@@H](O)[C@H](O)[C@H]4O)[C@H]3O)c2nc[n+]1[O-] reads ≥ 1000 mg/kg
